This collection of values is drawn from patent US20200079833A1.

- testedTarget: T1, glucose-dependent insulinotropic peptide (gastric inhibitory polypeptide) receptor (GIPR), primary cAMP assay (human, UniProt P48546 22-466)
- T1 sequence (looked up): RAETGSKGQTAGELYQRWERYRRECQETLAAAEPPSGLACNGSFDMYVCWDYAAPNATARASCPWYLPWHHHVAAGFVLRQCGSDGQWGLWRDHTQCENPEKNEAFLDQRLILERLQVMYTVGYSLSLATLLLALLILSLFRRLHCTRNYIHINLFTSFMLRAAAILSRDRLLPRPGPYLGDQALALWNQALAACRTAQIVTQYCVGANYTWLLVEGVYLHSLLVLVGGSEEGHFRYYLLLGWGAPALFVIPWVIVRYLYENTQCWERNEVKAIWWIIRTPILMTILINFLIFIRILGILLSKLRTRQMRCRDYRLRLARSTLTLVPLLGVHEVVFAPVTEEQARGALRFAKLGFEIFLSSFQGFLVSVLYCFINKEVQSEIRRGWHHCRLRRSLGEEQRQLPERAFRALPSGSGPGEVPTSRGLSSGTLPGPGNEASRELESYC
- experimentDescription: cell-based or functional assay
Starred links: 1 amine or outer side, 2 acyl side, 3 side chain; linkers in the order of their positions; H or OH if unused. Non-standard residues stand in square brackets, D forms with d. Groups on a side chain read outwards from the residue. Primed or numbered codes have the meaning given here. No end group written: not given here. *: point of attachment. Tyr(OMe) = COc1ccc(C[C@H](N[*:1])C(=O)[*:2])cc1; γGlu = O=C(O)[C@H](CCC(=O)[*:2])N[*:1]; Palmitoyl = CCCCCCCCCCCCCCCC(=O)*; αMeF = C[C@](N)(Cc1ccccc1)C(=O)O; αMeK = C[C@](N)(CCCCN)C(=O)O; Lauroyl = CCCCCCCCCCCC(=O)*; αMeS = C[C@](N)(CO)C(=O)O; PEG2′ = not defined here; Aib = CC(C)(N)C(=O)O
testReadout: Primary assay EC50 (cAMP), n2
# include the unit after the value

Task: # Primary assay EC50 (cAMP), n2 lookup, item H[Aib]EGS[αMeF]TSDVSK([PEG2′-PEG2′-γGlu-Lauroyl])YLEGEAAEEFIK([PEG2′-PEG2′-γGlu-Lauroyl])WVVEGG-NH2 [SEQ ID NO: 240]
Output: 22.2 nM

Task: Try the binder H[Aib]EGTFTSDVSK([PEG2′-PEG2′-γGlu-Palmitoyl])YLEGEAAEEFIK([PEG2′-PEG2′-γGlu-Palmitoyl])FVVEGG-NH2 [SEQ ID NO: 244]
Output: 21.6 nM

Task: Here is the next binder: H[Aib]EGS[αMeF]TSDV[αMeS]SK([PEG2′-PEG2′-γGlu-Lauroyl])LEGEAA[αMeK]EFIAK([PEG2′-PEG2′-γGlu-Lauroyl])VVEGG-NH2 [SEQ ID NO: 263]
Output: 21.5 nM

Task: And for H[Aib]EGS[αMeF]TSDVSK([PEG2′-PEG2′-γGlu-Lauroyl])YLEGEAA[αMeK]EFIK([PEG2′-PEG2′-γGlu-Lauroyl])WVVEGG-NH2 [SEQ ID NO: 249] ?
Output: 22.1 nM

Task: Quick one: H[Aib]EGS[αMeF]TSDVSK([PEG2′-PEG2′-γGlu-Palmitoyl])FLEGEAA[αMeK]EFIK([PEG2′-PEG2′-γGlu-Palmitoyl])FVVEGG-NH2 [SEQ ID NO: 250]
Output: 21.6 nM

Task: Now consider H[Aib]EGTFTSDVSK([PEG2′-PEG2′-γGlu-Palmitoyl])YLEGEAAEEFIK([PEG2′-PEG2′-γGlu-Palmitoyl])WVVEGG-NH2 [SEQ ID NO: 242] .
Output: 21.4 nM

Task: Moving on to H[Aib]EGS[αMeF]TSDV[αMeS]SK([PEG2′-PEG2′-γGlu-Lauroyl])LEGEAA[αMeK]E[Tyr(OMe)]IAK([PEG2′-PEG2′-γGlu-Lauroyl])VVEGG-NH2 [SEQ ID NO: 406]
Output: 21.5 nM

Task: Entry to check: H[Aib]EGTFTSDVSK([PEG2′-PEG2′-γGlu-Lauroyl])FLEGEAAEEFIK([PEG2′-PEG2′-γGlu-Lauroyl])FVVEGG-NH2 [SEQ ID NO: 239]
Output: 22.5 nM

Task: What about H[Aib]EGS[αMeF]TSDV[αMeS]SK([PEG2′-PEG2′-γGlu-Palmitoyl])LEGEAA[αMeK]EFIK([PEG2′-PEG2′-γGlu-Palmitoyl])WVVEGG-NH2 [SEQ ID NO: 265] ?
Output: 21.6 nM

Task: For H[Aib]EGTFTSDVSK([PEG2′-PEG2′-γGlu-Palmitoyl])FLEGEAAEEFIK([PEG2′-PEG2′-γGlu-Palmitoyl])FVVEGG-NH2 [SEQ ID NO: 245] then?
Output: 21.6 nM
